Recorded melting point for the following compounds
metric-name: melting point

1. CCN1Cc2ccc(Cl)cc2-c2c(C(=O)N3CCOCC3)cc(-c3ccccc3)c(=O)n21 : 288 to 289 °C
2. CN1CCCC2(OCCO2)C1Cc1cccc2[nH]ccc12 (centres undefined) : 181 to 186 °C
3. COc1ccc(C=C[N+](=O)[O-])cc1OC1CCCC1 : 133 to 134 °C
4. CCC(=O)OCC1(C)OCC2(CO1)COC(C)(COC(=O)CC)OC2 (centres undefined) : 55 to 56 °C
5. COc1ccc(OC)c(S(=O)(=O)n2c(COC(C)C(=O)O)cc3cc(Cl)ccc32)c1 (centres undefined) : 196 to 198 °C
6. CCOC(=O)c1sc(Oc2ccc(NS(=O)(=O)c3ccc(C)cc3)cc2)c2c1CCc1cnn(C)c1-2 : 201 to 202 °C
7. CC(=O)NCOc1ccc(S(=O)(=O)N2C3CCC2CN(CC(=O)Nc2ccccc2C)C3)cc1 : 205 to 206 °C
8. Nc1ncc2cc(-c3c(Cl)cccc3Cl)c(=O)n(Cc3cccc(Br)c3)c2n1 : 215 °C
9. CS(=O)c1cnc2ccsc2c1O (centres undefined) : 271 to 273 °C

----------
melting point values, listed per item
metric-name: melting point

1) COC(=O)c1ncccc1N : 139 to 146 °C
2) Cc1cc(C)c2c(c1O)C(=O)C(C)(C)C2 : 28 to 30 °C
3) O=S(=O)(Nc1ccccc1/C=C/c1ccncc1)c1ccc(OC(F)(F)F)cc1 : 151 to 153 °C
4) CSc1ncnc2c1ncn2COC(COC(C)=O)COC(C)=O : 191 to 193 °C
5) c1ccc(-c2cc(N3CCCCC3)c(-c3ccccc3)o2)cc1 : 103 °C
6) CC1(C)CC(=O)c2c(SCc3ccccc3)c[nH]c2C1 : 220 to 223 °C
7) OC1CSC(Oc2cc(-c3cncnc3)cnc2F)C(O)C1O (stereo not given) : 204 to 205 °C
8) CCOC(=O)C1=C(C)Nc2nc(N3CCOCC3)nc(N3CCOCC3)c2C1c1cccc2nonc12 (stereo not given) : 234 °C
9) CC(C)C[C@H](NC(=O)CCS(=O)(=O)c1ccccc1)C(=O)N[C@@H](C(C)C)[C@@H](O)c1c(-c2ccccc2)c1=O : 100 to 106 °C
10) CCCCn1nc(C(OC)OC)nc1Cc1ccc(-c2ccccc2-c2nnn[nH]2)nc1 : 113 to 115 °C

----------
metric-name: melting point

1. CCOC(=O)c1cc2c(C(=O)CN(Cc3ccccc3)C(C)CC(=O)OC)ccc(OCc3ccccc3)c2[nH]1 (stereo not given) : 120 to 123 °C
2. O=C(N[C@@H](Cc1ccc(O)cc1)C(=O)O)C(=Cc1ccccc1)NC(=O)C(F)(F)F : 165 to 175 °C
3. COC(=O)C(C)c1ccc(N2Cc3ccccc3C2=O)cc1 (stereo not given) : 128 °C
4. CCC(C)(C)NC(Nc1cc(C(F)(F)F)cc(C(F)(F)F)c1)=C(C#N)S(=O)(=O)c1ccc(Cl)cc1 : 205 to 207 °C
5. CN1C(=O)C2C3C=CC(C3)C2(c2cccc(Cl)c2)C1=O (stereo not given) : 98 to 100 °C

----------
# reported melting point; entries follow
metric-name: melting point

1. O=C(O)c1ccccc1N1C(=O)C=CC1=O : 165 to 168 °C
2. COc1ccc(-c2nc(-c3ccc(F)cc3)c(-c3ccc(S(C)(=O)=O)cc3)s2)cc1 : 187 to 189 °C
3. CC(=O)NNc1ccc(NC(=S)Nc2ccccc2)cc1 : 205 to 207 °C
4. CCc1oc2ccccc2c1C(=O)NCc1ccc2c(Br)c(OCc3nnn[nH]3)ccc2c1 : 235 to 238 °C
5. COc1ccc(-c2cc(C#N)c3cc(O)ccc3c2)cc1F : 214 to 216 °C
6. CN(C)c1ccc(C=Cc2ccc(N)cc2)cc1 : 168 °C
7. CCCC[C@H](NC(=O)[C@H](CC(C)C)NC(=O)c1ccc(C)cc1)C(=O)CSCc1ccco1 : 122 to 123 °C
8. Cc1cnc(-c2ssc(=S)c2C)cn1 : 162 to 163 °C
9. Cc1cccc(NC(=O)NC2N=C(c3ccccc3F)c3ccccc3N(Cc3nc4ccccc4[nH]3)C2=O)c1 (racemic) : 165 to 167 °C
10. CCOC(=O)C1=C(C)NC(C)=C(C(=O)OC)C1c1cccc2ccccc12 (stereo not given) : 196 to 197 °C
